Experiment: 14-day repeated dose toxicokinetic study, topical application to eyelid margin
Set-up: species or system Beagle dogs
Details: both sexes, Beagle, dog, in vivo, topical or ocular, 1.6 ug/day, Tmax
Result Type: Tmax (min)
# value in min; strip the unit string

// query Tmax for CCC(=O)O[C@]1(C(=O)SCF)[C@H](C)C[C@H]2[C@@H]3C[C@H](F)C4=CC(=O)C=C[C@]4(C)[C@@]3(F)[C@@H](O)C[C@@]21C [Fluticasone Propionate, fluticasone propionate] ?
// result 45

* * *

Experiment: 14-day repeated dose toxicokinetic study, topical application to eyelid margin
Design: species or system Beagle dogs
Conditions: both sexes, Beagle, dog, in vivo, topical or ocular, 9.6 ug/day, AUC0-24 h
Result Type: AUC(0-t) (ng·h/mL)
# value in ng·h/mL; strip the unit string

// query AUC(0-t) for CCC(=O)O[C@]1(C(=O)SCF)[C@H](C)C[C@H]2[C@@H]3C[C@H](F)C4=CC(=O)C=C[C@]4(C)[C@@]3(F)[C@@H](O)C[C@@]21C [Fluticasone Propionate, fluticasone propionate] ?
// result 0.191

Attribution: patent US20220241296A1
